Assay: melting temperature; fluorescence melt of hairpins on a sequencing array, two-state fit, raised by 9.35 °C to match UV melts
Details: sodium 0.088 M
// label = T if Tm is not less than 50 °C, otherwise F

* GAACGAGGAAACTCGTCC (.(((((....))))).) | F
* GCATGCGGAAACGCGTGC (((.(((....))).))) | T
* GATGCCGAAAGGCAGATC ((((((....)))..))) | T
* GTTCAGGGAAACCTGAGC (.(((((....))))).) | F
* GTGCCCGAAAGGGCCAC ((((((....))).))) | T

Ask | Determine whether measured Tm meets or exceeds 50 °C for GATCGGATCGCCGATC ((((((....))))))
Reply | T
